- Subject Of Test: T1, purified ALK protein (BLitz, Table 20) (Homo sapiens (Human), UniProt Q9UM73 19-1038, limits assumed)
- T1 construct: also called purified ALK proteins
- Assay Comment: BLI (BLitz), mAb on Protein A tip, purified ALK in solution
Measure: pKd
Expect pKd as a plain number equal to -log10 of the molar concentration.

Ab413 (antibody, V domains shown, humanized) VH: EVQLVQSGAEVKKPGTSVKLSCKASGYTFTSSAMQWVKQAPGQGLEWIGYIKPSSGYTKYNQKFKDKATLTADKSTSTAYMELSSLRSEDTAVYYCARDYYGSSSWFAYWGQGTLVTVSS VL: EIVMTQSQATLSTSPGERATLSCKASQNVGTNVAWYQQKPGQAPRALIYSASYRYSGVPARFSGSGSGTDFTLTISSVEPEDFAVYYCQQYNSYPYMYTFGQGTKLEIK : 5.78

Kindly review the next binder as well.
Q: Dear colleague, I am looking for the recorded pKd of the following binder: Ab359 (antibody, V domains shown, humanized) VH: QVQLVQSGAEVAKPGSSVKLSCKASGYTFTSYWMHWVKQAPGQGLEWIGYIKPSSGYTKYNQKFKDKATLTADKSTSTAYMELSSLRSEDTAVYYCARDYYGSSSWFAYWGQGTLVTVSS VL: EIVMTQSPAFLSVTPGEKVTITCKASQNVGTNVAWYQQKPDQAPKALIYSASYRYSGVPSRFSGSGSGTDFTLTISSLEAEDAATYYCQQYNSYPYMYTFGQGTKLEIK
A: 7.00
